List of binding signal values.
# System name: T1, RBFOX1 RRM (Homo sapiens, UniProt Q9NWB1 109-208)
# T1 sequence: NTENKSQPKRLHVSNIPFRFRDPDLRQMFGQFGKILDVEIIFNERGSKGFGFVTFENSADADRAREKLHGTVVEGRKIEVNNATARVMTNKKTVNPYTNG
# Protocol text: EMSA; HiTS-Eq, 1 nM pool, 10 min; buffer printed only for the single-RNA assays: 10 mM Tris pH 7.5, 150 mM NaCl, 3.4 mM EDTA, 0.001% NP-40, 30 C
# Assay context: tags: His6 N-terminal (pET28a); label: 5' 32P
In all, about 16,000 sequences were measured (“ka relative to ugcaugu”: median about 0.0091, highest 2% from about 0.032 on). The sample holds the highest values, similar sequences and a random draw of the others, so the mix is not that of the screen.
Endpoint label: binding signal

1. GCAUAUA (DNA:RNA) RNA: GGGAGACCGGAAUUCAGAUUGUCCGCAUAUAUUAAAUCCCGUCGUAGCCACCA DNA 1: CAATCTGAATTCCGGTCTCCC DNA 2: TGGTGGCTACGACGGGATT: 0.0014 KA relative to UGCAUGU
2. GUAUGUA (DNA:RNA) RNA: GGGAGACCGGAAUUCAGAUUGUCCGUAUGUAUUAAAUCCCGUCGUAGCCACCA DNA 1: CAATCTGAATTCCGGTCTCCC DNA 2: TGGTGGCTACGACGGGATT: 0.0125 KA relative to UGCAUGU
